- test details: Plasma pharmacokinetics in phase 1, open-label, fixed-sequence, 2-period drug interaction trial (MK-8591-005)
- Format: in vivo, human
- settings: human, plasma, oral, plasma; 50 mg dolutegravir + 300 mg TDF once daily with single 20 mg islatravir on day 8, period 2; N = 12; read-out: Apparent terminal t1/2, AM (SD) (converted)
endpoint label: half-life (h)
The answer is to be given in h; state only the numeric part.

Data request: Identify half-life associated with the compound "C[C@@H]1CCO[C@H]2Cn3cc(C(=O)NCc4ccc(F)cc4F)c(=O)c(O)c3C(=O)N12"
Data returned: 15.7

---

# Lookup of reported concentration at 24 h keyed by entry
- test details: Plasma pharmacokinetics in phase 1, open-label, fixed-sequence, 2-period drug interaction trial (MK-8591-005)
- Format: in vivo, human
- settings: human, plasma, oral, plasma; 50 mg dolutegravir + 300 mg TDF once daily with single 20 mg islatravir on day 8, period 2; N = 12; read-out: C24, AM (SD)
The answer is to be given in µg/mL; state only the numeric part.

C[C@@H]1CCO[C@H]2Cn3cc(C(=O)NCc4ccc(F)cc4F)c(=O)c(O)c3C(=O)N12 [Dolutegravir] | 1.31

Data request: Identify concentration at 24 h associated with the compound C[C@H](Cn1cnc2c(N)ncnc21)OCP(=O)(O)O [Tenofovir]
Data returned: 0.0453

---

- test details: Plasma pharmacokinetics in phase 1, open-label, fixed-sequence, 2-period drug interaction trial (MK-8591-005)
- Format: in vivo, human
- settings: human, plasma, po, 20 mg, plasma islatravir; islatravir alone, single oral 20 mg, day 1 period 1; N = 12; read-out: AUC0‐inf, AM (SD)
- Method: This was a phase 1, open‐label, fixed‐sequence, 2‐period trial in adults without HIV (protocol MK‐8591‐005). In period 1, participants received a single oral dose of 20 mg islatravir. […] Plasma concentrations of islatravir, dolutegravir, and tenofovir were determined by inVentiv Health Clinique (Québec City, Québec, Canada) using validated high‐performance liquid chromatography coupled to tandem mass spectrometry methods. […]
endpoint label: AUC (µM·h)
The answer is to be given in µM·h; state only the numeric part.

Data request: Identify AUC associated with the molecule C#C[C@]1(CO)O[C@@H](n2cnc3c(N)nc(F)nc32)C[C@@H]1O [Islatravir, 4′‐Ethynyl‐2‐fluoro‐2′‐deoxyadenosine]
Data returned: 2

---

- test details: Plasma pharmacokinetics in phase 1, open-label, fixed-sequence, 2-period drug interaction trial (MK-8591-005)
- Type: in vivo, human
- settings: human, plasma, oral, plasma; 50 mg dolutegravir + 300 mg TDF once daily with single 20 mg islatravir on day 8, period 2; N = 12; read-out: AUC0‐24, AM (SD)
endpoint label: AUC (ng·h/mL)
The answer is to be given in ng·h/mL; state only the numeric part.

Data request: Identify AUC associated with the compound C[C@H](Cn1cnc2c(N)ncnc21)OCP(=O)(O)O [Tenofovir]
Data returned: 2350

---

- test details: Plasma pharmacokinetics in phase 1, open-label, fixed-sequence, 2-period drug interaction trial (MK-8591-005)
- Type: in vivo, human
- settings: human, plasma, oral, plasma islatravir; single 20 mg islatravir on day 8 with 50 mg dolutegravir + 300 mg TDF once daily, period 2; N = 12; read-out: Apparent terminal t1/2, AM (SD) (converted)
endpoint label: half-life (h)
The answer is to be given in h; state only the numeric part.

Data request: Identify half-life associated with the compound "C#C[C@]1(CO)O[C@@H](n2cnc3c(N)nc(F)nc32)C[C@@H]1O"
Data returned: 56.2

Hello, the source for this data is paper PMC9298070, in case you need it.
